System: EPHA8
SETUP_CONDITIONS: concentration: 1 μM, replicates: in singlicate; n = 1;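 note: KINOMEscan kinase panel screen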
REPORTED_METRIC: %Inh
A complete answer gives the number and then names the unit.

# count of solved cases: 9
Cc1c2ccc(N(C)c3ccnc(Nc4cccc(S(N)(=O)=O)c4)n3)cc2nn1Cc1ccccc1.Cl.Cl; 39%
Nc1nccc(-c2c(-c3ccc(F)cc3)ncn2C2CCN(CC(F)(F)F)CC2)n1; 0%
NS(=O)(=O)c1cccc(-c2ccc3nccc(-c4cccc(S(N)(=O)=O)c4)c3c2)c1; 4%
Cc1ccc(NC(=O)c2ccnc(N3CCN(C)CC3)c2)cc1-c1ccc(C(=O)NCC2CC2)cc1; 18%
COc1ccc(Nc2nccc(N3CCC(NC(=O)Nc4cccc(C(C)=O)c4)C3)n2)cc1 (stereo not shown); 9%
COc1cc2ncn(-c3cc(OCc4sccc4Cl)c(C(N)=O)s3)c2cc1OC; 11%
CC(C)(C)n1cnc2c(N)ncnc21; 7%
COCCNC(=O)c1ccc(-c2cc(C(=O)NC3CC3)cc(F)c2C)cc1; 12%
CC(C)Oc1ccc2c(-c3ccnc(Nc4ccc(N5CCN(C)CC5)cc4)n3)cnn2n1; 9%

Continue with the molecule presented below.
# lookup: %Inh of O=C1Cc2cc(Nc3nc(NCc4cccc(S(=O)(=O)C(F)(F)F)c4)ncc3C(F)(F)F)ccc2N1
0%

---

Each item that follows carries a reported %Inh.
Test system: DRAK2
Construct: gene STK17B
SETUP_CONDITIONS: concentration: 1 μM, replicates: in singlicate; n = 1
A complete answer gives the number and then names the unit.

# count of solved cases: 2
CNc1ncnc2[nH]ncc12; 0%
NS(=O)(=O)c1cccc(-c2ccc3nccc(-c4cccc(S(N)(=O)=O)c4)c3c2)c1; 0%

# lookup: %Inh of N#Cc1ccc(-c2cc(-c3c[nH]nc3-c3ccccn3)ccn2)cc1
0%

# lookup: %Inh of O=C(Nc1cccc(-c2nn3ncccc3c2-c2ccnc(Nc3cccc(C(F)(F)F)c3)n2)c1)c1c(F)cccc1F
0%

# lookup: %Inh of COc1cc2c(cc1OCCN1CCN(C)CC1)ncc1c3ccc(C#N)cc3[nH]c21
100%

---

Test system: MEK3
Construct: gene MAP2K3
SETUP_CONDITIONS: concentration: 1 μM, replicates: in singlicate; n = 1
REPORTED_METRIC: %Inh

# count of solved cases: 3
[2H]C([2H])(c1cccc(C(F)(F)F)c1C)n1ccn2c(=O)nc(N3CCOCC3)cc12; 0%
CN(C(=O)c1ccc(-c2cc(-c3c[nH]nc3-c3ccccn3)ccn2)cc1)C1CCOCC1; 14%
N#Cc1ccc(-c2cc(-c3c[nH]nc3-c3ccccn3)ccn2)cc1; 0%

Continue with the compound presented below.
# lookup: %Inh of O=C(NCCCN1CCOCC1)c1cccc(Nc2nccc(Nc3ccc(Oc4ccccc4)cc3)n2)c1
7%

---

Tested on: RPS6KA4(Kin.Dom.1-N-terminal)
SETUP_CONDITIONS: concentration: 1 μM, replicates: in singlicate; n = 1
REPORTED_METRIC: %Inh (%)
Your answer is read as %, so omit the unit and give the number.

# count of solved cases: 4
O=C(c1ccc(-c2cc(-c3c[nH]nc3-c3ccccn3)ccn2)cc1)N1CCOCC1 [GW812171]; 6
Fc1ccc(-c2ncn(CCCN3CCOCC3)c2-c2cccnc2)cc1 [SB-211743]; 31
Nc1nc(-c2ccc3c(N)n[nH]c3c2)cc(N2CCCC2)n1 [GSK2227430]; 0
Cc1cn2c(=O)cc(N3CCOCC3)nc2n1Cc1cccc(Cl)c1Cl [GSK2334006]; 27

Continue with the compound presented below.
# lookup: %Inh of CCCCCc1nc2c(N)ncnc2n1CCCCC [SKF-97255]
6
